- experimental-protocol: Toxicity liver stage against HepG2, at 10uM
- Format: cell-based
- Parameters: test concentration 10 uM, cell line HepG2-A16-CD81EGFP
- measurement-parameters: human, HepG2-A16-CD81EGFP cells; read-out: INHIBITION
Each item that follows carries a reported cytotoxicity at 10 µM.
attribute-measured: cytotoxicity at 10 µM (%)

> print(dat)
                                    compound     attribute.measured  readout.units  readout.number
 1  CNC(=O)CN1CCOCC2(CCCN(Cc3ccsc3)C2)C1 (stereo unspecified)  cytotoxicity at 10 µM              %            2.61
 2  O=S(=O)(c1ccc2c(c1)CCC2)N1CCCC(Cn2cncn2)C1 (stereo unspecified)  cytotoxicity at 10 µM              %            4.19
 3  Cc1nccn1-c1ccc(CNC(=O)c2ccc([S+](C)[O-])cc2)cn1 (stereo unspecified)  cytotoxicity at 10 µM              %           -18.1
 4  Cc1nc(Nc2cnccn2)cc(C2CCCN(C(C)C)C2)n1 (stereo unspecified)  cytotoxicity at 10 µM              %           -9.03
 5  Cc1nc(C)n(CC2CCCCN2CCOc2cccc(C#N)c2)n1 (stereo unspecified)  cytotoxicity at 10 µM              %             -10
 6  CC(=O)N1N=C(c2ccccc2)OC1C(=O)NCCc1ccc(O)cc1 (stereo unspecified)  cytotoxicity at 10 µM              %              -4
 7  CCC(C(=O)NCc1ccncc1)N(c1ccc(OC)cc1)S(C)(=O)=O (stereo unspecified)  cytotoxicity at 10 µM              %           -10.2
 8  COc1ccccc1C1=NOC(CC2(C(=O)NC(C)C)CCOCC2)C1 (stereo unspecified)  cytotoxicity at 10 µM              %           -20.4
 9  Cn1ccnc1CN1CCCC(CO)(CCc2ccccc2)C1 (stereo unspecified)  cytotoxicity at 10 µM              %           -3.36
10  Cn1cc(C2COC3(CCN(C(=O)c4cnccn4)CC3)C2)cn1 (stereo unspecified)  cytotoxicity at 10 µM              %           -68.5
11  COc1nc2c(cc1C(=O)N(C)Cc1n[nH]c3c1CCCC3)CCC2  cytotoxicity at 10 µM              %           -1.89

###

- experimental-protocol: Toxicity liver stage against HepG2, at 10uM
- Assay type: cell-based
- Set-up: test concentration 10 uM, cell line HepG2-A16-CD81EGFP
- measurement-parameters: human, HepG2-A16-CD81EGFP cells; read-out: INHIBITION
Each item that follows carries a reported cytotoxicity at 10 µM.
attribute-measured: cytotoxicity at 10 µM (%)

> print(dat)
                                   compound  readout.number
1  CN(C)Cc1cnn(-c2ccccc2C(=O)NCCC2CCCN2C)c1 (stereo unspecified)            8.18
2               O=C(NCc1ccnc(O)c1)NCC1CCCC1            3.57
3   Cc1cc(C)nc(N2CCC(CNC(=O)c3ccccn3)CC2)n1           -18.9
4   Cc1cc(C)nc(N2CCC(CNC(=O)c3cnccn3)CC2)n1           -26.1
5  CN1CCCC(C(=O)N2CCC(Oc3ccccn3)CC2)C1 (stereo unspecified)           -5.15
6          CCc1noc(CN(CCC2CCCCC2)CC(N)=O)n1            5.76
